Where do these numbers come from? They come from patent US20260184815A1.

Property: ELISA (T/B); scope: individual binders
Target: T1, human plasma kallikrein (human, UniProt P03952 20-390; P03952 391-638)
T1 construct: also called pKal; Human pKal
T1 sequence (P03952 20-390, chain 1 of 2): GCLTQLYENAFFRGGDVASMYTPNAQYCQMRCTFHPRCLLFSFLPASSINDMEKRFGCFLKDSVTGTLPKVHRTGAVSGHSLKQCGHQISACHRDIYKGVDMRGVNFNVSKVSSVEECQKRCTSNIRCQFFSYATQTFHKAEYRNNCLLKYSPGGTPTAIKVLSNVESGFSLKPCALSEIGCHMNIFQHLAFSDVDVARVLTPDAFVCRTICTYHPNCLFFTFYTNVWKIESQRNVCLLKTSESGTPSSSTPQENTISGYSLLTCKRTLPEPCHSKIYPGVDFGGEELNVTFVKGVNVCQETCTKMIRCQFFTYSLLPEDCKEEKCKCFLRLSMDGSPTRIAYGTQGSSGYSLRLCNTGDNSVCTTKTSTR
T1 sequence (P03952 391-638, chain 2 of 2): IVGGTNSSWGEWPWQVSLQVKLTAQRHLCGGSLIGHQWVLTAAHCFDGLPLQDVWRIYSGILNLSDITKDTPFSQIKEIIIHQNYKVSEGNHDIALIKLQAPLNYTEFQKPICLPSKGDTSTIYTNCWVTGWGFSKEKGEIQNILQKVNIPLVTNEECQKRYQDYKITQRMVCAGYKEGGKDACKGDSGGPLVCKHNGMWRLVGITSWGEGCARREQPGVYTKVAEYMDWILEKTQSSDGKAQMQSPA
Test: ELISA, biotinylated pKal signal over streptavidin background
Description: Abbreviations used: “T/B” is the ELISA signal obtained using of the “target” (biotinylated plasma kallikrein) divided by the ELISA signal of the “background” (streptavidin); both of which were coated on microtiter plates, “nd” is not determined. The symbol “q” refers to the amber suppressible stop codon (TAG), which is translated as glutamine (Q) in strains of E. coli such as the TG1 cells that were used to express the Fab fragments.

Binder	ELISA (T/B)
M10-G09 (Fab, V domains shown, HC as printed runs into CH1) VH: EVQLLESGGGLVQPGGSLRLSCAASGFTFSQYGMQWVRQAPGKGLEWVSSIRSSGGATRYADSVKGRFTISRDNSKNTLYLQMNSLRAEDTAVYYCARDGYYDSSGYPDYWGQGTLVTVSS VL: DIQMTQSPSSLSASVGDSVTITCRASQSISGYINWYQQKAGKAPKLLIYAASSLQSGVPSRFSGSGSGTHFTLTISSLQPEDFATYYCQQYVSYPFTFGPGTKVDIK	7.1
M8-H04 (Fab, V domains shown, HC as printed runs into CH1) VH: EVQLLESGGGLVQPGGSLRLSCAASGFTFSGYWMGWVRQAPGKGLEWVSSISSSGGWTQYADSVKGRFTISRDNSKNTLYLQMNSLRAEDTATYYCARDDEIAAGGAFDIWGQGAMVTVSS VL: DIQMTQSPSSLSASIGDRVTITCRASQYISTYLNWYEQKPGKAPKLLIYGTSSLQSGVPSRFSGSGSGTEFSLTISSLQPEDFATYYCQQSFTTPFTFGQGTKLEIK	3.3
M10-A12 (Fab, V domains shown, HC as printed runs into CH1) VH: EVQLLESGGGLVQPGGSLRLSCAASGFTFSLYLMHWVRQAPGKGLEWVSSIYSSGGFTTYADSVKGRFTISRDNSKNTLYLQMNSLRAEDTAVYYCARDTDYGMDVWGQGTTVTVSS VL: DIQMTQSPLSLSAFVGDRVTITCRASRDISVYLNWYQLKSGKAPKLLIYGASSLQSGVPSRFSGSGSGTDFTLTITSLQPEDFATYYCQQSYSIPFTFGGGTKVETK	20.8
